experiment: Stability in human plasma after 2 hrs by RP-HPLC method; assay type: ADME, cell-free
Starred links: 1 amine or outer side, 2 acyl side, 3 side chain; linkers in the order of their positions; H or OH if unused. Non-standard residues stand in square brackets, D forms with d. Residues, ends and D or L forms follow the SMILES beside them. εLys = N[C@@H](CCCCN[*:1])C(=O)[*:2]
PROPERTY LABEL: Stability

Recall and state the measured Stability for CC(C)C[C@H](NC(=O)[C@H](CC(C)C)NC(=O)[C@H](CCCCN)NC(=O)[C@H](CC(C)C)NC(=O)[C@H](CC(C)C)NC(=O)[C@@H](N)CCCCNC(=O)[C@H](CCCCN)NC(=O)[C@H](CC(C)C)NC(=O)[C@H](CC(C)C)NC(=O)[C@H](CCCCN)NC(=O)[C@H](CCCCN)NC(=O)[C@H](CC(C)C)NC(=O)[C@H](CC(C)C)NC(=O)[C@H](CCCCN)NC(=O)[C@@H](N)CC(C)C)C(N)=O (H-LKLLKKLLK[εLys]LLKLL-NH2) .
Stable

Note Stability for the compound shown: CC(C)C[C@H](NC(=O)[C@H](CC(C)C)NC(=O)[C@@H](N)CCCCNC(=O)[C@H](CC(C)C)NC(=O)[C@H](CC(C)C)NC(=O)[C@H](CCCCN)NC(=O)[C@H](CCCCN)NC(=O)[C@H](CC(C)C)NC(=O)[C@H](CC(C)C)NC(=O)[C@H](CCCCN)NC(=O)[C@H](CCCCN)NC(=O)[C@H](CC(C)C)NC(=O)[C@H](CC(C)C)NC(=O)[C@H](CCCCN)NC(=O)[C@@H](N)CC(C)C)C(N)=O (H-LKLLKKLLKKLL[εLys]LL-NH2)
Stable

Quote Stability reported for CC(C)C[C@H](NC(=O)[C@H](CC(C)C)NC(=O)[C@H](CCCCN)NC(=O)[C@H](CC(C)C)NC(=O)[C@H](CC(C)C)NC(=O)[C@H](CCCCN)NC(=O)[C@H](CCCCN)NC(=O)[C@H](CC(C)C)NC(=O)[C@H](CC(C)C)NC(=O)[C@H](CCCCN)NC(=O)[C@H](CCCCN)NC(=O)[C@H](CC(C)C)NC(=O)[C@H](CC(C)C)NC(=O)[C@@H](N)CCCCNC(=O)[C@@H](N)CC(C)C)C(N)=O (H-K(Leu)LLKKLLKKLLKLL-NH2) please.
Stable
